assay: qHTS assay to identify small molecule that activate the aryl hydrocarbon receptor (AhR) signaling pathway - cell viability counter screen (AID 743086); settings: HepG2-AhR-luc viability, CellTiter-Fluor, 24 h; series mostly up to 70.3 µM; further: nearly all actives have a fitted effect of over 45% in size
Results filed as inconclusive are left out. The source made the active and inactive calls. The call rests on the fitted dose curve; in most records, active means well fitted cell-killing curve with a large enough effect in the repeat runs; inconclusive means weak or mixed curves, or effect the other way; inactive means flat fitted curve, though single readings scatter.
Outcomes: active, inactive

NCCCCCCNCCCCCCN	inactive
CCN(CC)CCCN(c1ccccc1)C1Cc2ccccc2C1	active
CN1[C@@H]2CC[C@@H]1CC(OC(=O)C(CO)c1ccccc1)C2 (some centres not stated)	inactive
CCc1ccc(O)c(C(C)(C)C)c1	inactive
Cc1occc1SSc1ccoc1C	inactive
S=P(N1CC1)(N1CC1)N1CC1	inactive
NC(=O)C(=O)N/N=C/c1ccc([N+](=O)[O-])o1	inactive
CC1=C(/C=C/C(C)=C/C=C/C(C)=C/C(=O)Nc2ccc(O)cc2)C(C)(C)CCC1	active
N#CSCSc1nc2ccccc2s1	inactive
CO[C@H]1C=CO[C@@]2(C)Oc3c(C)c(O)c4c(O)c(cc(O)c4c3C2=O)NC(=O)/C(C)=C\C=C/[C@H](C)[C@H](O)[C@@H](C)[C@@H](O)[C@@H](C)[C@H](OC(C)=O)[C@@H]1C	inactive
C=C[C@](C)(O)CC[C@@H]1[C@@]2(C)CCCC(C)(C)[C@@H]2CC[C@@]1(C)O	inactive
CN(C)CCOC(c1ccccc1)c1ccccc1 (tested in a mixture with another compound)	inactive
O=C(c1ccccc1)c1cc(Cl)ccc1O	inactive
CCCCCCOc1ccc(O)cc1	inactive
COc1cc(C(=O)NS(=O)(=O)c2ccccc2C)ccc1Cc1cn(C)c2ccc(NC(=O)OC3CCCC3)cc12	inactive
O=Nc1ccc(NO)cc1	inactive
C(=C/c1ccccc1)/c1ccccc1	inactive
CCCC(CC)CCCCCCCN (configuration not stated)	inactive
O=C1NC2CCCCN2C12CCN(CCCN1c3ccccc3CCc3ccc(Cl)cc31)CC2 (configuration not stated)	active
CN1[C@@H]2CC[C@H]1CC(OC(=O)C(CO)c1ccccc1)C2 (some centres not stated)	inactive
CCCCCCCCCCCCCCNCCO	inactive
c1cc2c3c(c1)ccc1cccc(c13)C2	inactive
CCN(CC)CCNc1ccc(CO)c2sc3ccccc3c(=O)c12	active
CCC(C)c1cc([N+](=O)[O-])cc([N+](=O)[O-])c1OC(=O)OC(C)C (configuration not stated)	active
CC(C(O)c1ccccc1)N(C)CCOC(c1ccccc1)c1ccccc1 (configuration not stated)	inactive
CCCCCCCCCCOCC(O)CN (configuration not stated)	inactive
O=C(O)CCn1c2c(c3ccccc31)C[C@H](NS(=O)(=O)c1ccc(F)cc1)CC2	inactive
Cc1ccc(N)cc1O	active
Cc1nc(Nc2ncc(C(=O)Nc3c(C)cccc3Cl)s2)cc(N2CCN(CCO)CC2)n1	active
O=C1OC(OC(=O)c2cccnc2Nc2cccc(C(F)(F)F)c2)c2ccccc21 (configuration not stated)	inactive
CC(O)C#CC(C)O (configuration not stated)	inactive
CC(C)N=C(N)/N=C(\N)Nc1ccc(Cl)cc1	inactive
CCCCCCCCCCCCCOP(=O)(O)O	inactive
CN(C)CCCN1c2ccccc2Sc2ccc(C(F)(F)F)cc21	active
CCOC(=O)[C@@](C)(N)Cc1ccc(O)c(O)c1	inactive
CCN1CCN(c2cc(-c3ccc(F)cc3)c3c(n2)CCCCCC3)CC1	inactive
CCCCCCCCCCCCCC[n+]1ccccc1	active
CC(NCCC(c1ccccc1)c1ccccc1)c1ccccc1 (configuration not stated)	active
CCN(CC)CCSC(=O)C(c1ccccc1)c1ccccc1	inactive
CNC(=O)c1cc(Oc2ccc(NC(=O)Nc3ccc(Cl)c(C(F)(F)F)c3)cc2)ccn1	active
CCCCCCOc1cc(C)c(O)c(C)c1C	inactive
O=C1Nc2ccc(Cl)cc2[C@@](C#CC2CC2)(C(F)(F)F)O1	inactive
O=C(O)c1cccc(Cl)n1	inactive
C[C@H]1O[C@@H](O[C@H]2[C@@H](O)C[C@H](O[C@H]3[C@@H](O)C[C@H](O[C@H]4CC[C@@]5(C)[C@H](CC[C@@H]6[C@@H]5C[C@@H](O)[C@]5(C)[C@@H](C7=CC(=O)OC7)CC[C@]65O)C4)O[C@@H]3C)O[C@@H]2C)C[C@H](O)[C@@H]1O	inactive
CCCCNc1c(C(=O)OCC)c(C)nc2c1cnn2CC	inactive
Cc1c(C(=O)O)cccc1[N+](=O)[O-]	inactive
Clc1ccc(C(Cn2ccnc2)OCc2ccsc2Cl)c(Cl)c1 (configuration not stated)	active
